# Experimental system: human MC4R (Homo sapiens)
# Sequence (P32245 whole entry): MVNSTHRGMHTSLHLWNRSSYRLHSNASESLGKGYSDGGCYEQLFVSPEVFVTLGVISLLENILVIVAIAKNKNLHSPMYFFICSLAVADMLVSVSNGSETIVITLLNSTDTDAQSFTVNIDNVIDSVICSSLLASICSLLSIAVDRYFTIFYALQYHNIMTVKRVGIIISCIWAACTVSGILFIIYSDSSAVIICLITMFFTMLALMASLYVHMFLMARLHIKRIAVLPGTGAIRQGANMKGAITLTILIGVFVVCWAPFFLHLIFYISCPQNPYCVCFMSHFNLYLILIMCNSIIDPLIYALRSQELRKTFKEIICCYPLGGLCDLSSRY
# Experimental details: Intracellular cAMP levels in live cells, MC3R selectivity relative to MC4R
# Type: cell-based
# Condition notes: cAMP assays in human MC3R and human MC4R stable cell lines
Non-standard residues stand in square brackets, D forms with d. Residues, ends and D or L forms follow the SMILES beside them. Phe(4-Br) = N[C@@H](Cc1ccc(Br)cc1)C(=O)O; Nle = CCCC[C@H](N)C(=O)O; Aib = CC(C)(N)C(=O)O
What MC3R selectivity (relative to MC4R) was measured for each of the following?
Write the value as a bare number.

Hi! What's the reported MC3R selectivity (relative to MC4R) for CCCC[C@H](NC(=O)[C@@H](NC(=O)[C@@H](N)Cc1ccc(O)cc1)C(C)C)C(=O)NC(C)(C)C(=O)N[C@@H](Cc1c[nH]cn1)C(=O)N[C@@H](Cc1ccccc1)C(=O)N[C@@H](CCCNC(=N)N)C(=O)N[C@H](Cc1c[nH]c2ccccc12)C(=O)N[C@@H](CC(=O)O)C(N)=O [CTX-1130, Tyr-Val-Nle-Aib-His-Phe-Arg-D-Trp-Asp] (H-YV[Nle][Aib]HFR[dW]D-NH2) on human MC4R (Homo sapiens)? 58

Which measured MC3R selectivity (relative to MC4R) belongs to CCCC[C@H](NC(=O)[C@@H](NC(=O)[C@@H](N)Cc1ccc(O)cc1)C(C)C)C(=O)N[C@H](C)C(=O)N[C@@H](Cc1c[nH]cn1)C(=O)N[C@@H](Cc1ccc(Br)cc1)C(=O)N[C@@H](CCCNC(=N)N)C(=O)N[C@H](Cc1c[nH]c2ccccc12)C(=O)N[C@@H](CC(=O)O)C(=O)N[C@@H](CCCNC(=N)N)C(=O)N[C@@H](Cc1ccccc1)C(=O)NCC(=O)O [CTX-2120] (H-YV[Nle][dA]H[Phe(4-Br)]R[dW]DRFG-OH) , tested on human MC4R (Homo sapiens)? 173

Query for human MC4R (Homo sapiens): what MC3R selectivity (relative to MC4R) does the record show for CCCC[C@H](NC(C)=O)C(=O)N[C@H](C)C(=O)N[C@@H](Cc1c[nH]cn1)C(=O)N[C@@H](Cc1ccccc1)C(=O)N[C@@H](CCCNC(=N)N)C(=O)N[C@H](Cc1c[nH]c2ccccc12)C(=O)N[C@@H](CCCCN)C(=O)N[C@@H](CCCNC(=N)N)C(=O)N[C@@H](Cc1ccccc1)C(=O)NCC(=O)O [CTX-1533] (Ac-[Nle][dA]HFR[dW]KRFG-OH) ? 314

Record lookup: for human MC4R (Homo sapiens), what MC3R selectivity (relative to MC4R) belongs to CCCC[C@H](NC(=O)[C@@H](NC(=O)[C@@H](N)Cc1ccc(O)cc1)C(C)C)C(=O)NC(C)(C)C(=O)N[C@@H](Cc1c[nH]cn1)C(=O)N[C@@H](Cc1ccccc1)C(=O)N[C@@H](CCCNC(=N)N)C(=O)N[C@H](Cc1c[nH]c2ccccc12)C(=O)N[C@@H](CC(=O)O)C(=O)N[C@@H](CCCNC(=N)N)C(=O)N[C@@H](Cc1ccccc1)C(=O)NCC(=O)O [CTX-1134] (H-YV[Nle][Aib]HFR[dW]DRFG-OH) ? 566
